assay.overview: Compound was evaluated for half life of hydrolysis in phosphate buffer at pH 7.4 and 37 degree C
Type: ADME
Assign 1 to entries whose half-life meets or exceeds 6 h; assign -1 to the rest.

C[C@@H](O)[C@H]1C(=O)N2C(C(=O)[O-])=C(C(C)(C)C)S(=O)(=O)[C@H]12.[K+]	1
CC(C)(C)C1=C(C(=O)[O-])N2C(=O)C[C@H]2S1.[K+]	1
C[C@@H](O)[C@H]1C(=O)N2C(C(=O)[O-])=C(C(C)(C)C)[S+]([O-])[C@H]12.[K+] (stereo not given in full)	1
CC(C)(C)C1=C(C(=O)[O-])N2C(=O)C[C@H]2[S+]1[O-].[K+] (stereo not given in full)	-1

Consider now this further compound.
Reported half-life reaches at least 6 h for C[C@@H](O)[C@H]1C(=O)N2C(C(=O)[O-])=C(C(C)(C)C)S[C@H]12.[K+] ?
1
